test system: 786-0 complex spheroid viability; test: Anticancer human tumor 786-0 cell line growth inhibition; settings: second compound 0.316 µM; first compound 1 µM; stronger effect = lower value;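 also: spheroids exposed to agents for seven days before readout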
Friendly reminder: viability, T/C below 30% is Satisfied, at or above is Not satisfied.

>  <MOLECULE>
O=C(C=Cn1cnc(-c2cc(C(F)(F)F)cc(C(F)(F)F)c2)n1)NNc1cnccn1 + NC1CC1c1ccc(-c2cccc(O)c2)cc1

>  <CAT>
Satisfied

$$$$
>  <MOLECULE>
Nc1ncn(C2CC(O)C(CO)O2)c(=O)n1 (configuration not stated) + NC1CC1c1ccc(-c2cccc(O)c2)cc1

>  <CAT>
Not satisfied

$$$$
>  <MOLECULE>
O=C(C=Cn1cnc(-c2cc(C(F)(F)F)cc(C(F)(F)F)c2)n1)NNc1cnccn1 + NC1CCC(NC2CC2c2ccccc2)CC1

>  <CAT>
Satisfied

$$$$
>  <MOLECULE>
O=C(c1cc(Cc2n[nH]c(=O)c3ccccc23)ccc1F)N1CCN(C(=O)C2CC2)CC1 + NC1CC1c1ccc(-c2cccc(O)c2)cc1

>  <CAT>
Not satisfied

$$$$
>  <MOLECULE>
CC(C)c1c(-c2ccccc2)nc2c(C#N)c[nH]n2c1=O + NC1CCC(NC2CC2c2ccccc2)CC1

>  <CAT>
Not satisfied

$$$$
>  <MOLECULE>
CC1COCCN1c1cc(-c2ccnn2C)c2ccnc(-c3ccn[nH]3)c2n1 (configuration not stated) + NC1CC1c1ccc(-c2cccc(O)c2)cc1

>  <CAT>
Satisfied

$$$$

As a next step, examine the molecule that follows.
Q: Please let me know if CC1COCCN1c1cc(-c2ccnn2C)c2ccnc(-c3ccn[nH]3)c2n1 (configuration not stated) + NC1CCC(NC2CC2c2ccccc2)CC1 shows viability, T/C below 30%.
Result: Satisfied

###

test system: 786-0 complex spheroid viability; test: Anticancer human tumor 786-0 cell line growth inhibition; settings: second compound 10 µM; first compound 0.1 µM; active = viability on the fitted dose curve at most 10% of control; inactive = the rest;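 also: spheroids exposed to agents for seven days before readout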
A correct response names exactly one class from yes (active), no (inactive)

Completed entries (count: 5):
>  <COMPOUND>
CC[C@@]1(O)C(=O)OCc2c1cc1n(c2=O)Cc2cc3c(CN(C)C)c(O)ccc3nc2-1 + NC1CCC(NC2CC2c2ccccc2)CC1

>  <EXPERIMENTAL_SYSTEM>
786-0 complex spheroid viability

>  <CAT>
yes

$$$$
>  <COMPOUND>
CC1(C)CCC(CN2CCN(c3ccc(C(=O)NS(=O)(=O)c4ccc(NCC5CCOCC5)c([N+](=O)[O-])c4)c(Oc4cnc5[nH]ccc5c4)c3)CC2)=C(c2ccc(Cl)cc2)C1 + NC1CC1c1ccc(-c2cccc(O)c2)cc1

>  <EXPERIMENTAL_SYSTEM>
786-0 complex spheroid viability

>  <CAT>
no

$$$$
>  <COMPOUND>
Nc1ncn(C2CC(O)C(CO)O2)c(=O)n1 (stereo unspecified) + NC1CCC(NC2CC2c2ccccc2)CC1

>  <EXPERIMENTAL_SYSTEM>
786-0 complex spheroid viability

>  <CAT>
no

$$$$
>  <COMPOUND>
O=C(c1cc(Cc2n[nH]c(=O)c3ccccc23)ccc1F)N1CCN(C(=O)C2CC2)CC1 + NC1CCC(NC2CC2c2ccccc2)CC1

>  <EXPERIMENTAL_SYSTEM>
786-0 complex spheroid viability

>  <CAT>
no

$$$$
>  <COMPOUND>
COc1cc(Nc2ncc3c(n2)-c2ccc(Cl)cc2C(c2c(F)cccc2OC)=NC3)ccc1C(=O)O + NC1CCC(NC2CC2c2ccccc2)CC1

>  <EXPERIMENTAL_SYSTEM>
786-0 complex spheroid viability

>  <CAT>
no

$$$$

As a next step, examine the compound that follows.
Q: Record lookup: outcome of this test for CC1COCCN1c1cc(C2(S(C)(=N)=O)CC2)nc(-c2ccnc3[nH]ccc23)n1 (stereo unspecified) + NC1CCC(NC2CC2c2ccccc2)CC1 ?
Result: no

###

test system: 786-0 complex spheroid viability; test: Anticancer human tumor 786-0 cell line growth inhibition; details: second compound 10 µM; first compound 0.1 µM; stronger effect = lower value;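 also: spheroids exposed to agents for seven days before readout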
# key: entry, value: viability, T/C
State just the number; it will be interpreted in %.

Measured viability, T/C, Nc1ncn(C2CC(O)C(CO)O2)c(=O)n1 (stereo not drawn) + NC1CC1c1ccc(-c2cccc(O)c2)cc1 : 93

Measured viability, T/C, CC1COCCN1c1cc(C2(S(C)(=N)=O)CC2)nc(-c2ccnc3[nH]ccc23)n1 (stereo not drawn) + NC1CC1c1ccc(-c2cccc(O)c2)cc1 : 95.2

Measured viability, T/C, CC1(C)CCC(CN2CCN(c3ccc(C(=O)NS(=O)(=O)c4ccc(NCC5CCOCC5)c([N+](=O)[O-])c4)c(Oc4cnc5[nH]ccc5c4)c3)CC2)=C(c2ccc(Cl)cc2)C1 + NC1CCC(NC2CC2c2ccccc2)CC1 : 94.6

###

test system: 786-0 complex spheroid viability; test: Anticancer human tumor 786-0 cell line growth inhibition; conditions: second compound 0.316 µM; first compound 3.16 µM; stronger effect = lower value;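 also: spheroids exposed to agents for seven days before readout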
Friendly reminder: viability, T/C below 90% is Criterion met, at or above is Criterion not met.

Completed entries (count: 2):
>  <MOLECULE>
CC1COCCN1c1cc(C2(S(C)(=N)=O)CC2)nc(-c2ccnc3[nH]ccc23)n1 (configuration not stated) + NC1CC1c1ccc(-c2cccc(O)c2)cc1

>  <EXPERIMENTAL_SYSTEM>
786-0 complex spheroid viability

>  <CAT>
Criterion met

$$$$
>  <MOLECULE>
CC(C)c1c(-c2ccccc2)nc2c(C#N)c[nH]n2c1=O + NC1CC1c1ccc(-c2cccc(O)c2)cc1

>  <EXPERIMENTAL_SYSTEM>
786-0 complex spheroid viability

>  <CAT>
Criterion not met

$$$$

Q: Please let me know if CC(C)c1c(-c2ccccc2)nc2c(C#N)c[nH]n2c1=O + NC1CCC(NC2CC2c2ccccc2)CC1 shows viability, T/C below 90%.
Result: Criterion not met

Q: Please let me know if COc1ccc([C@@H](O)c2cc(-c3ncnc4cc(N5CCOCC5)ccc34)c(F)cc2Cl)nn1 + NC1CC1c1ccc(-c2cccc(O)c2)cc1 shows viability, T/C below 90%.
Result: Criterion met

Q: Please let me know if O=C(c1cc(Cc2n[nH]c(=O)c3ccccc23)ccc1F)N1CCN(C(=O)C2CC2)CC1 + NC1CCC(NC2CC2c2ccccc2)CC1 shows viability, T/C below 90%.
Result: Criterion met

Q: Please let me know if CC1COCCN1c1cc(C2(S(C)(=N)=O)CC2)nc(-c2ccnc3[nH]ccc23)n1 (configuration not stated) + NC1CCC(NC2CC2c2ccccc2)CC1 shows viability, T/C below 90%.
Result: Criterion met

Q: Please let me know if COc1ccc([C@@H](O)c2cc(-c3ncnc4cc(N5CCOCC5)ccc34)c(F)cc2Cl)nn1 + NC1CCC(NC2CC2c2ccccc2)CC1 shows viability, T/C below 90%.
Result: Criterion met

###

Tested on: 786-0 complex spheroid viability
Test: Anticancer human tumor 786-0 cell line growth inhibition;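 also: spheroids exposed to agents for seven days before readout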
Settings: curve of first compound; second compound 0.316 µM
From the text: Multicellular complex tumor spheroid response to LSD1 Inhibitor Iadademstat in combination with a variety of drugs and investigational agents in selected tumor cell lines The current study was undertaken to assess response to LSD1 inhibitors in combination with standard-of-care drugs and investigational agents in solid tumor complex spheroid models as well as in the K-562 leukemia. […] Compounds. […] If the clinical Cmax for an agent had not been determined, the highest concentration tested was 10 microM. […]
# key: entry, value: pIC50
Formally, pIC50 is defined as -log10 of the concentration c, with c in mol/L.

>  <COMPOUND>
CC1COCCN1c1cc(-c2ccnn2C)c2ccnc(-c3ccn[nH]3)c2n1 (stereo not drawn) + NC1CCC(NC2CC2c2ccccc2)CC1

>  <MEASURED_VALUE>
7.43

$$$$

Read the next record carefully.
Item CC1COCCN1c1cc(C2(S(C)(=N)=O)CC2)nc(-c2ccnc3[nH]ccc23)n1 (stereo not drawn) + NC1CCC(NC2CC2c2ccccc2)CC1 was tested on 786-0 complex spheroid viability; the reported pIC50 is 6.10

###

system: 786-0 complex spheroid viability; assay: Anticancer human tumor 786-0 cell line growth inhibition; conditions: second compound 1 µM; first compound 0.003 µM; active = viability on the fitted dose curve at most 10% of control; inactive = the rest;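 also: spheroids exposed to agents for seven days before readout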
A correct response names exactly one class from class 1 (active), class 0 (inactive)

Completed entries (count: 5):
>  <COMPOUND>
Nc1ccn(C2OC(CO)C(O)C2(F)F)c(=O)n1 (stereo unspecified) + NC1CCC(NC2CC2c2ccccc2)CC1

>  <EXPERIMENTAL_SYSTEM>
786-0 complex spheroid viability

>  <CAT>
class 1

$$$$
>  <COMPOUND>
Nc1ccn(C2OC(CO)C(O)C2(F)F)c(=O)n1 (stereo unspecified) + NC1CC1c1ccc(-c2cccc(O)c2)cc1

>  <EXPERIMENTAL_SYSTEM>
786-0 complex spheroid viability

>  <CAT>
class 1

$$$$
>  <COMPOUND>
Nc1ncn(C2CC(O)C(CO)S2)c(=O)n1 (stereo unspecified) + NC1CC1c1ccc(-c2cccc(O)c2)cc1

>  <EXPERIMENTAL_SYSTEM>
786-0 complex spheroid viability

>  <CAT>
class 0

$$$$
>  <COMPOUND>
Nc1ncn(C2CC(O)C(CO)S2)c(=O)n1 (stereo unspecified) + NC1CCC(NC2CC2c2ccccc2)CC1

>  <EXPERIMENTAL_SYSTEM>
786-0 complex spheroid viability

>  <CAT>
class 0

$$$$
>  <COMPOUND>
CCc1c2c(nc3ccc(O)cc13)-c1cc3c(c(=O)n1C2)COC(=O)[C@]3(O)CC + NC1CCC(NC2CC2c2ccccc2)CC1

>  <EXPERIMENTAL_SYSTEM>
786-0 complex spheroid viability

>  <CAT>
class 1

$$$$

As a next step, examine the compound that follows.
Q: Record lookup: outcome of this test for CCc1c2c(nc3ccc(O)cc13)-c1cc3c(c(=O)n1C2)COC(=O)[C@]3(O)CC + NC1CC1c1ccc(-c2cccc(O)c2)cc1 ?
Result: class 1

Where do these numbers come from? They come from PubChem BioAssay AID1918944.
